# relative viability per entry
Tested on: BEN
Assay comment: relative viability (nuclei count vs DMSO), 5 days (fraction); higher = more cells survive
Run parameters: first compound 0.03162 µM
Form: value (number only, do not type unit).

{"Compound": "Cc1cn(-c2cc(NC(=O)c3ccc(C)c(Nc4nccc(-c5cccnc5)n4)c3)cc(C(F)(F)F)c2)cn1 [Nilotinib] + CS(=O)(=O)CCNCc1ccc(-c2ccc3ncnc(Nc4ccc(OCc5cccc(F)c5)c(Cl)c4)c3c2)o1 [Lapatinib] (partner 2 µM)", "Target or test system": "BEN", "relative viability": 0.518}
{"Compound": "Cc1cn(-c2cc(NC(=O)c3ccc(C)c(Nc4nccc(-c5cccnc5)n4)c3)cc(C(F)(F)F)c2)cn1 [Nilotinib] + Cc1cc(Nc2cc(N3CCN(C)CC3)nc(Sc3ccc(NC(=O)C4CC4)cc3)n2)n[nH]1 [Tozasertib] (partner 0.1 µM)", "Target or test system": "BEN", "relative viability": 0.408}
{"Compound": "Cc1cn(-c2cc(NC(=O)c3ccc(C)c(Nc4nccc(-c5cccnc5)n4)c3)cc(C(F)(F)F)c2)cn1 [Nilotinib] + COc1cccc2cc(-c3nc([C@H]4CC[C@H](C(=O)O)CC4)n4ncnc(N)c34)[nH]c12 [OSI-027] (partner 0.5 µM)", "Target or test system": "BEN", "relative viability": 0.283}
{"Compound": "Cc1cn(-c2cc(NC(=O)c3ccc(C)c(Nc4nccc(-c5cccnc5)n4)c3)cc(C(F)(F)F)c2)cn1 [Nilotinib] + COc1cc2c(Oc3ccc(NC(=O)C4(C(=O)Nc5ccc(F)cc5)CC4)cc3F)ccnc2cc1OCCCN1CCOCC1 [Foretinib] (partner 0.25 µM)", "Target or test system": "BEN", "relative viability": 0.647}

Turning to the following compound.
With BEN as the test system, Cc1cn(-c2cc(NC(=O)c3ccc(C)c(Nc4nccc(-c5cccnc5)n4)c3)cc(C(F)(F)F)c2)cn1 [Nilotinib] + CCNC(=O)c1noc(-c2cc(C(C)C)c(O)cc2O)c1-c1ccc(CN2CCOCC2)cc1 [Luminespib] (partner 0.01 µM) showed relative viability of 0.277
